Molecular target: Human immunodeficiency virus type 1 protease (Human immunodeficiency virus 1)
Experiment: Inhibition of HIV protease at pH 6.4, 37 degree C
*1 amine or outer side, *2 acyl side, *3 side chain or, on linkers, in order; H or OH if unused. Where a SMILES comes first, the peptide text is derived from it. [ ]: non-standard residue; d: D form. The star is where a group is joined. Phe(ψ(S)CH(OH)CH2N)Pro = O=C([C@@H]1CCCN1C[C@H](O)[C@H](Cc1ccccc1)N[*:1])[*:2]; Ahppa(3S,4S) = O=C(C[C@H](O)[C@H](Cc1ccccc1)N[*:1])[*:2]; Boc = CC(C)(C)OC(=O)*
attribute_measured: pKi
Notebook: values listed as pKi are -log10 of the concentration (mol/L).

Quick check: pKi of CC[C@H](C)[C@H](NC(=O)[C@@H]1CCCN1C[C@H](O)[C@H](Cc1ccccc1)NC(=O)[C@H](CC(N)=O)NC(=O)[C@H](CC(C)C)NC(=O)[C@H](CO)NC(C)=O)C(=O)OC (Ac-SLN[Phe(ψ(S)CH(OH)CH2N)Pro]I-OMe) ?
6.38

Repeat with CC[C@H](C)[C@H](NC(=O)C[C@H](O)[C@H](Cc1ccccc1)NC(=O)[C@H](CC(N)=O)NC(=O)[C@H](CC(C)C)NC(=O)[C@H](CO)NC(=O)OC(C)(C)C)C(=O)N[C@H](C(=O)OC)C(C)C (Boc-SLN[Ahppa(3S,4S)]IV-OMe)
5.58

Data origin: ChEMBL document CHEMBL1124753
